Target: Quadruplex DNA
Assay: Binding affinity to human G4-quadruplex Oxy28 DNA 5'- GGGGTTTTGGGGTTTTGGGGTTTTGGGG -3' assessed as change in fluorescence intensity at 1 uM incubated for 0.5 hrs in presence of different concentrations of DNA by fluorescence spectra analysis
Format: nucleic-acid assay
pKd: −log10 of the molar value.
REPORTED PROPERTY: pKd

> print(dat)
                                   compound  reported.property  numeric.value
1  c1c2c(cc3c1OCO3)-c1cc3ccc4c(c3c[n+]1CC2)OCO4 [COPTISINE]                pKd           6.01
2  COc1ccc2cc3[n+](cc2c1OC)CCc1cc2c(cc1-3)OCO2 [BERBERINE]                pKd           5.78

----------
Collected IC50 values appear next to each entry.
Test system: A549/TR
Test: Antiproliferative activity against human A549/Taxol cells assessed as reduction in cell viability incubated for 48 hrs by CCK-8 assay
Format: functional, cell-based
REPORTED PROPERTY: IC50

> print(dat)
                            chemical.string     result
1  COc1ccc2cc3[n+](cc2c1OC)CCc1cc2c(cc1-3)OCO2  ≥ 24.3 µM
2  c1c2c(cc3c1OCO3)-c1cc3ccc4c(c3c[n+]1CC2)OCO4  ≥ 24.3 µM

----------
Tested on: dsDNA
Test: Binding affinity to double stranded DNA ssab (unknown origin) assessed as change in fluorescence intensity at 1 uM incubated for 0.5 hrs by fluorescence spectra analysis
Assay type: nucleic-acid assay
Calls of active or inactive are those of the source. No cut-off for these calls is given here.
Outcomes: Y (active), N (inactive)

> print(dat)
                            chemical.string  group
1  C[n+]1cc2c3c(ccc2c2ccc4cc5c(cc4c21)OCO5)OCO3      Y
2  COc1ccc2c(c[n+](C)c3c4cc5c(cc4ccc23)OCO5)c1OC      Y
3  COc1ccc2cc3[n+](cc2c1OC)CCc1cc2c(cc1-3)OCO2      N
4  c1c2c(cc3c1OCO3)-c1cc3ccc4c(c3c[n+]1CC2)OCO4      N

----------
Biological target: dsDNA
Test: Binding affinity to double stranded DNA AT15-4AT (unknown origin) incubated for 0.5 hrs in presence of different concentration DNA by fluorescence spectra analysis
Type: nucleic-acid assay
Collected EC50 values appear next to each entry.
REPORTED PROPERTY: EC50 (nM)

> print(dat)
                                   molecule  numeric.value
1  COc1ccc2cc3[n+](cc2c1OC)CCc1cc2c(cc1-3)OCO2 [BERBERINE]            230
2  C[n+]1cc2c3c(ccc2c2ccc4cc5c(cc4c21)OCO5)OCO3 [SANGUINARIUM]            770
3  c1c2c(cc3c1OCO3)-c1cc3ccc4c(c3c[n+]1CC2)OCO4 [COPTISINE]           5570
4  COc1ccc2c(c[n+](C)c3c4cc5c(cc4ccc23)OCO5)c1OC [CHELERYTHRINE]           1150

----------
Biological target: dsDNA
Test: Binding affinity to double stranded DNA AT15-2AT (unknown origin) incubated for 0.5 hrs in presence of different concentration DNA by fluorescence spectra analysis
Type: nucleic-acid assay
pEC50: −log10 of the molar value.
Collected pEC50 values appear next to each entry.
REPORTED PROPERTY: pEC50

> print(dat)
                                   compound  measured.on  numeric.value
1  c1c2c(cc3c1OCO3)-c1cc3ccc4c(c3c[n+]1CC2)OCO4 [COPTISINE]        dsDNA           5.41
2  COc1ccc2c(c[n+](C)c3c4cc5c(cc4ccc23)OCO5)c1OC [CHELERYTHRINE]        dsDNA           5.95
3  COc1ccc2cc3[n+](cc2c1OC)CCc1cc2c(cc1-3)OCO2 [BERBERINE]        dsDNA           6.82
4  C[n+]1cc2c3c(ccc2c2ccc4cc5c(cc4c21)OCO5)OCO3 [SANGUINARIUM]        dsDNA           5.97
